Listed next: entries and their corresponding log10 of IC (TGI).
# System: HT-29
# method_summary: SRB colorimetric cell growth inhibition assay, HT-29
# Format: cell-based
# condition_set: Homo sapiens, HT-29, HT-29; total growth inhibition (cytostatic effect); read-out: TGI HT-29
Hi team, quick reminder: these entries are log10 of IC (TGI) (µM).

smiles_code | system | endpoint_value
COc1cc(-c2c3c4cc(OC)c(OC(=O)[C@@H](N)C(C)C)cc4oc(=O)c3n3ccc4cc(OC(=O)[C@@H](N)C(C)C)c(OC)cc4c23)ccc1OC(=O)[C@@H](N)C(C)C | HT-29 | 0.63
COc1cc(-c2c3c4cc(OC)c(O)cc4oc(=O)c3n3ccc4cc(OC)c(OC)cc4c23)ccc1O | HT-29 | 1.29
CCCCCCCC(=O)Oc1ccc(-c2c3n(c4c(=O)oc5cc(OC(=O)CCCCCCC)c(OC)cc5c24)CCc2cc(OC(=O)CCCCCCC)c(OC)cc2-3)cc1OC | HT-29 | 0.08
COc1cc(-c2c3c4cc(OC)c(OC(=O)[C@@H](N)Cc5ccccc5)cc4oc(=O)c3n3ccc4cc(OC(=O)[C@@H](N)Cc5ccccc5)c(OC)cc4c23)ccc1OC(=O)[C@@H](N)Cc1ccccc1 | HT-29 | 0.58
COc1cc(-c2c3c4cc(OC)c(OC(C)C)cc4oc(=O)c3n3ccc4c(OC(C)C)c(OC)c(OC)c(COS(C)(=O)=O)c4c23)ccc1OC(C)C | HT-29 | 1.12

q: Note log10 of IC (TGI) for the compound shown: `COc1cc(-c2c3c4cc(OC)c(OC(=O)[C@@H]5CCCN5)cc4oc(=O)c3n3ccc4cc(OC(=O)[C@@H]5CCCN5)c(OC)cc4c23)ccc1OC(=O)[C@@H]1CCCN1`
a: 1.05

q: Note log10 of IC (TGI) for the compound shown: `COc1cc2ccn3c(c(-c4ccc(OC(=O)[C@H](C)N)c(OC)c4)c4c5cc(OC)c(OC(=O)[C@H](C)N)cc5oc(=O)c43)c2cc1OC`
a: 1.18

q: Note log10 of IC (TGI) for the compound shown: `COc1cc(-c2c3n(c4c(=O)oc5cc(OC(=O)[C@@H]6CCCN6)c(OC)cc5c24)CCc2c-3cc(OC)c(OC)c2OC(=O)[C@@H]2CCCN2)ccc1OC(=O)[C@@H]1CCCN1`
a: 0.55

q: Note log10 of IC (TGI) for the compound shown: `COc1cc(-c2c3n(c4c(=O)oc5cc(OC(=O)[C@@H](N)Cc6ccccc6)c(OC)cc5c24)CCc2cc(OC(=O)[C@@H](N)Cc4ccccc4)c(OC)cc2-3)ccc1OC(=O)[C@@H](N)Cc1ccccc1`
a: 0.81

q: Note log10 of IC (TGI) for the compound shown: `COc1cc(-c2c3c4cc(OC)c(OC(=O)[C@H](N)C(C)C)cc4oc(=O)c3n3ccc4cc(OC(=O)[C@H](N)C(C)C)c(OC)cc4c23)ccc1OC(=O)[C@H](N)C(C)C`
a: -0.16

---

# System: SK-BR-3
# method_summary: SRB colorimetric cell growth inhibition assay, SK-BR-3
# Format: cell-based
# condition_set: Homo sapiens, SK-BR-3, SK-BR-3; LC=cell killing (cytotoxic effect); read-out: LC50 SK-BR-3
outcome_measure: CC50

smiles_code | system | CC50
COc1cc(-c2c3c4cc(OC)c(OC(C)C)cc4oc(=O)c3n3ccc4c(OC(C)C)c(OC)c(OC)c(COS(C)(=O)=O)c4c23)ccc1OC(C)C | SK-BR-3 | 13.1 µM
COc1cc(-c2c3c4cc(OC)c(OC(=O)[C@H](C)N)cc4oc(=O)c3n3ccc4cc(OC(=O)[C@H](C)N)c(OC)cc4c23)ccc1OC(=O)[C@H](C)N | SK-BR-3 | 9.48 µM

q: Quote CC50 with test system SK-BR-3 for `COc1cc(-c2c3n(c4c(=O)oc5cc(OC(=O)[C@@H](N)Cc6ccccc6)c(OC)cc5c24)CCc2cc(OC(=O)[C@@H](N)Cc4ccccc4)c(OC)cc2-3)ccc1OC(=O)[C@@H](N)Cc1ccccc1`
a: 7.53 µM
